- Test system: PXR:RXRa (NR concentration 270 nM, RXRa partner concentration 90 nM)
- assayNotes: PBM binding z-score (relative to random genomic background probes); higher = stronger binding; sequences stand for … in GC…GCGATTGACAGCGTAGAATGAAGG
Values of PBM binding z-score greater than or equal to 2 map to TRUE; values below map to FALSE.

Before answering, review these 3 worked examples.
querySequence	group
TCTTGTAGATCAATAGAGGTTACGAAAGTGCGCT	TRUE
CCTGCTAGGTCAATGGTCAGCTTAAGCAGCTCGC	FALSE
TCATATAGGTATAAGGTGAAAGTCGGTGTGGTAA	FALSE

Does PBM binding z-score meet or surpass 2 for "CGTCCAAGGTGATAGGAGGTCAGTGAAGACAGAT" ? TRUE

// same read-out, input: "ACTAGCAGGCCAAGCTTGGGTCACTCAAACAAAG" FALSE

Then what about the sequence "CCTACTGGGCCACGAAAGGTCGTTGATTCAGTGA" ? TRUE

Also need "GCAGACAGGTGAAACGGAGGTAACTCAGGGTGGC" , thanks. FALSE

Then "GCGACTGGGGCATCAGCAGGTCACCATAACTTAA" ? TRUE

What do you have for "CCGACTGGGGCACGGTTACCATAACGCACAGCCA" ? FALSE

Continue with "ATAGACAGGTGATGAAGGTAACTCAGGCTATCAT" FALSE

Field entry: "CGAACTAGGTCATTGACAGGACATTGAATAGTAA" TRUE

* * *

- Test system: RARb:RXRa (NR concentration 270 nM, RXRa partner concentration 90 nM)
- assayNotes: PBM binding z-score (relative to random genomic background probes); higher = stronger binding; sequences stand for … in GC…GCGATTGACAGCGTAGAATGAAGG
PBM binding z-score values by entry
Give the value as a plain number.

querySequence	measuredQuantity	val
TCAGACGGGTGAAGGTAACTCAGGTACGCAGTCG	PBM binding z-score	0.641

Param item = "CGTCCAAGGTCAAATGTCAGTGAAGAGATGACGG" ; retrieve measured PBM binding z-score. 5.38

What do we get for "GCAGACAGGAGAAACGCAGGTAACTCAGGGTGGC" ? -0.624

Also check "TCATATAGGTAAAAGGTAAAAGTCGGTGTGGTAA" 0.854

# repeat for "CAAACTATGTCACGAAAGGTCAAAGTCGAATGAC" 4.92

Similarly, "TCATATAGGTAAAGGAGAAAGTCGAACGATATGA" ? 0.251

One more sequence: "CCTACTGAGCCAAAGGTCATTGATTCCAATGCTC" 4.57

Moving on to the next sequence: "AGAATGAGGTTATACGCAGATCAGGGAAGAAAGT" 1.52

Next record, please: "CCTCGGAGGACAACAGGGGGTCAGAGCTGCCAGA" 2.71

Also need "GCGACTGGGGCAAAGCAGGTTACAATAAGGTTGG" , thanks. 1.06

Same again, this time with "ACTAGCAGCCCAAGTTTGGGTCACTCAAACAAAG" 0.813

* * *

In this section, each of the sequences is paired with its reported PBM binding z-score.
- Tested on: RARg:RXRa (NR concentration 270 nM, RXRa partner concentration 90 nM)
- assayNotes: PBM binding z-score (relative to random genomic background probes); higher = stronger binding; sequences stand for … in GC…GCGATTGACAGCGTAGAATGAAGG

// worked examples, PBM binding z-score included
querySequence	measuredQuantity	val
TCTTGTAGATCAGCTGGTTAAGAAAGCTGGCCAA	PBM binding z-score	-0.465
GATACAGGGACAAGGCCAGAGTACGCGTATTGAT	PBM binding z-score	0.288
CGAACTAGGCCATCCAGGACAGTGAATACATTGA	PBM binding z-score	0.517
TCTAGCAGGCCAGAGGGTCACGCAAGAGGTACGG	PBM binding z-score	3.78
CCTGCTAGCTCAATGGTCAGCTAAAGCAGCTCGC	PBM binding z-score	-0.547
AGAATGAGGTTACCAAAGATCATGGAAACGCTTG	PBM binding z-score	2.26
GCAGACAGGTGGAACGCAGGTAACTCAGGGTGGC	PBM binding z-score	-0.378
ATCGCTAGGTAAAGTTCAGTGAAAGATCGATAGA	PBM binding z-score	1.75
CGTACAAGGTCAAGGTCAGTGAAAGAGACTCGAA	PBM binding z-score	6.85
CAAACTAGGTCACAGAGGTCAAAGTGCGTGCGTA	PBM binding z-score	7.46

Value lookup for PBM binding z-score; key = "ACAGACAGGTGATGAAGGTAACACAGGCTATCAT" 0.674

What about this sequence? "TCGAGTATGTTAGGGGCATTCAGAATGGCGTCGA" -0.134

Check "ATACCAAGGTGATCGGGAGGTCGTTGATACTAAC" too. 2.79

Now consider "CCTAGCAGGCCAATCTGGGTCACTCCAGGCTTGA" and answer again. 0.98

One more sequence: "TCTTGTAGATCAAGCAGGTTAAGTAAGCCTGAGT" -0.201

Now the same for "GCATATAGGTAATACAAAGTGAAAGTCCGATTGT" 0.129

Okay, and "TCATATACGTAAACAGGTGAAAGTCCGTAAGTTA" ? 0.708

"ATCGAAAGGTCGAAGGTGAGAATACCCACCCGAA" , same question. 4.34

What do you have for "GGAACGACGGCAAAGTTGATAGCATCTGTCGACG" ? -0.162

Next sequence up: "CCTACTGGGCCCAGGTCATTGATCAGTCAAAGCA" 2.06

Entry "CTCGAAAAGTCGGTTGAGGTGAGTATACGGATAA" please 0.446

What about this sequence? "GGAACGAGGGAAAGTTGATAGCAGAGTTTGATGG" -0.266

And for "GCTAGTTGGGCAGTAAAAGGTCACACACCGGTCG" ? 5.03
